Below, each entry is listed alongside its reported logP.

molecule: COC(=O)C(C)S(=O)(=O)c1ccc([N+](=O)[O-])cc1 (stereo unspecified)
logP: 1.06

molecule: NC(N)=NCCCNC(=O)[C@@H]1CCCCN1C(=O)[C@@H](CC1CCCCC1)NCC(=O)O
logP: -0.1

molecule: O=C(O)CCCCCON=C(c1cccc(C(F)(F)F)c1)c1cnccn1
logP: 3.52

molecule: CC(C)=CCCC(C)=CCCC(C)(C)O
logP: 4.54

molecule: COc1cccc2nc(N)nc(N)c12
logP: 1.18

molecule: CCc1ccc(OCC2CN=C(N)O2)cc1 (stereo unspecified)
logP: 2.27

====

Classification field: enter label 1 for logP values not below 2, label 0 for values below it.

molecule: c1ccc(CCNc2ncnc3nc[nH]c23)cc1
qualitative.label: label 1

molecule: CCNC(=NC#N)NS(=O)(=O)c1cnccc1NC1CCCCCC1
qualitative.label: label 0

molecule: COC(=O)C(C)(C)S(=O)(=O)c1ccc([N+](=O)[O-])cc1
qualitative.label: label 0

molecule: CN1CCN(CCCOn2nnc3ccccc32)CC1
qualitative.label: label 0

molecule: C=CCC(C)(C(=O)OCC)S(=O)(=O)c1ccc([N+](=O)[O-])cc1 (stereo unspecified)
qualitative.label: label 1

molecule: CCN(CCO)CCCOc1cc2ncnc(Nc3cc(CC(=O)Nc4cccc(F)c4)[nH]n3)c2cc1OC
qualitative.label: label 1

====

Where a SMILES comes first, the peptide text is derived from it.
Class field: derived from logP; ranges low interval (below 1), middle interval (1 to below 3), high interval (3 or more)

compound: Cc1ccc(C)c(Cc2cnc[nH]2)c1
qualitative.label: middle interval

compound: C=Cn1c([N+](=O)[O-])cnc1C=Cc1ccc(C(=O)O)cc1
qualitative.label: middle interval

compound: OC(CNC1CCCCC1)CON=C(C1CC1)C1CC1 (stereo not given)
qualitative.label: middle interval

compound: Cc1cccc(N2CCN(CC3CN=C(N)O3)CC2)c1 (stereo not given)
qualitative.label: middle interval

compound: CCCCNc1ncnc2nc[nH]c12
qualitative.label: middle interval

compound: Nc1ncnc2c1ncn2C1OC(CCl)C(O)C1O (stereo not given)
qualitative.label: low interval

compound: Nc1nnnn1-c1ccc(O)cc1
qualitative.label: low interval

compound: ClCC1(C(Cl)Cl)C2CC(Cl)(Cl)C1(C(Cl)Cl)C(Cl)C2(Cl)Cl (stereo not given)
qualitative.label: high interval

compound: Cc1oc2ccc3c(C)cc(=O)[nH]c3c2c1C
qualitative.label: high interval

compound: CC(C)CC(NC(=O)C(CC(C)C)NC(=O)C(N)CO)C(=O)O (stereo not drawn) (H-Ser-Leu-Leu-OH; configuration not given here)
qualitative.label: low interval

compound: CNC(Cc1ccccc1)C(=O)N1CCCC1C(=O)NCC1CCC(N)CC1 (stereo not given)
qualitative.label: middle interval

compound: CCOc1ccccc1NC(=O)OC1C(CN(CC)CC)C2CCC1(C)C2(C)C (stereo not given)
qualitative.label: high interval

compound: COc1ccc(C2Cc3c(cccc3C(F)(F)F)N(CCN(C)C)C(=O)C2C)cc1 (stereo not given)
qualitative.label: high interval

compound: CCCC(=NOCC)C1=C(O)CC2(CCCCC2)OC1=O
qualitative.label: high interval

compound: CCOC(=O)CCCn1ccnc1[N+](=O)[O-]
qualitative.label: low interval

compound: CCCC(=NOCC)C1=C(O)CC(C)(C2CC2)OC1=O (stereo not given)
qualitative.label: high interval

compound: Cc1coc2c(C)c3oc(=O)ccc3cc12
qualitative.label: middle interval

compound: Cc1[nH]cnc1CSCCNc1ncc(Cc2cccc3c2OCO3)c(=O)n1C
qualitative.label: middle interval

compound: CCCOCCCNc1[nH]cnc2ncnc1-2
qualitative.label: middle interval

compound: CCCCOc1ccccc1NC(=O)OCCN1CCCCC1
qualitative.label: high interval

compound: CC(C)OP(=O)(OC(C)C)C(Cl)(Cl)P(=O)(OC(C)C)OC(C)C
qualitative.label: middle interval

compound: c1ccc(CN2CCN(CCCOn3nnc4ccccc43)CC2)cc1
qualitative.label: high interval

compound: OC(CNCC(O)C1CCc2cc(F)ccc2O1)C1CCc2cc(F)ccc2O1 (stereo not given)
qualitative.label: high interval

compound: NC(Cc1ccc(O)cc1)C(=O)NCC(=O)NC(Cc1ccccc1)C(=O)O (stereo not drawn) (H-Tyr-Gly-Phe-OH; configuration not given here)
qualitative.label: low interval

compound: O=c1[nH]c2cc(Cl)ccc2c(O)c1-c1cccc(Cc2ccc(CCN3CCOCC3)cc2)c1
qualitative.label: high interval

compound: CCC(C)C(N)C(=O)NC(Cc1ccc(O)cc1)C(=O)NC(C(=O)NC(C(=O)O)C(C)C)C(C)CC (stereo not given) (H-IYIV-OH; configuration not given here)
qualitative.label: low interval

compound: Cc1c(O)c(=O)ccn1CCCOC(=O)c1ccccc1
qualitative.label: middle interval

compound: COC(=O)Cc1ccc(O)cc1
qualitative.label: middle interval

compound: COCOc1ccc(Cc2cccc(-c3c(O)c4ccc(Cl)cc4[nH]c3=O)c2)cc1
qualitative.label: high interval

compound: CC(=O)C(=Cc1cc(O)c(O)c([N+](=O)[O-])c1)C(C)=O
qualitative.label: middle interval

compound: COc1ccc(CCNCC(O)COc2ccc(-c3nc(C(C)=O)c[nH]3)cc2)cc1OC (stereo not given)
qualitative.label: middle interval

compound: CCCCCCNCc1ccc(C)cc1
qualitative.label: high interval

compound: CCCNc1ccncc1S(=O)(=O)NC(=NC#N)NC(C)C
qualitative.label: low interval

compound: CC(C)CC(NC(=O)C(NC(=O)C(CO)NC(=O)C(CC(C)C)NC(=O)CN)C(C)C)C(=O)O (stereo not given) (H-GLSVL-OH; configuration not given here)
qualitative.label: low interval

compound: C=CC(=O)Oc1ccccc1
qualitative.label: middle interval

compound: CC(=NNC(=O)c1ccc([N+](=O)[O-])cc1)c1cnccn1
qualitative.label: middle interval

compound: O=c1cc(CCl)occ1O
qualitative.label: low interval

compound: COc1cccc(C=[N+]([O-])C(C)(C)C)c1
qualitative.label: middle interval
